Cited source: patent US20240239767A1

Experimental Target: potassium ion channel hERG (human Ether-á-go-go-Related Gene) (Homo sapiens)
Sequence (Q12809 whole entry): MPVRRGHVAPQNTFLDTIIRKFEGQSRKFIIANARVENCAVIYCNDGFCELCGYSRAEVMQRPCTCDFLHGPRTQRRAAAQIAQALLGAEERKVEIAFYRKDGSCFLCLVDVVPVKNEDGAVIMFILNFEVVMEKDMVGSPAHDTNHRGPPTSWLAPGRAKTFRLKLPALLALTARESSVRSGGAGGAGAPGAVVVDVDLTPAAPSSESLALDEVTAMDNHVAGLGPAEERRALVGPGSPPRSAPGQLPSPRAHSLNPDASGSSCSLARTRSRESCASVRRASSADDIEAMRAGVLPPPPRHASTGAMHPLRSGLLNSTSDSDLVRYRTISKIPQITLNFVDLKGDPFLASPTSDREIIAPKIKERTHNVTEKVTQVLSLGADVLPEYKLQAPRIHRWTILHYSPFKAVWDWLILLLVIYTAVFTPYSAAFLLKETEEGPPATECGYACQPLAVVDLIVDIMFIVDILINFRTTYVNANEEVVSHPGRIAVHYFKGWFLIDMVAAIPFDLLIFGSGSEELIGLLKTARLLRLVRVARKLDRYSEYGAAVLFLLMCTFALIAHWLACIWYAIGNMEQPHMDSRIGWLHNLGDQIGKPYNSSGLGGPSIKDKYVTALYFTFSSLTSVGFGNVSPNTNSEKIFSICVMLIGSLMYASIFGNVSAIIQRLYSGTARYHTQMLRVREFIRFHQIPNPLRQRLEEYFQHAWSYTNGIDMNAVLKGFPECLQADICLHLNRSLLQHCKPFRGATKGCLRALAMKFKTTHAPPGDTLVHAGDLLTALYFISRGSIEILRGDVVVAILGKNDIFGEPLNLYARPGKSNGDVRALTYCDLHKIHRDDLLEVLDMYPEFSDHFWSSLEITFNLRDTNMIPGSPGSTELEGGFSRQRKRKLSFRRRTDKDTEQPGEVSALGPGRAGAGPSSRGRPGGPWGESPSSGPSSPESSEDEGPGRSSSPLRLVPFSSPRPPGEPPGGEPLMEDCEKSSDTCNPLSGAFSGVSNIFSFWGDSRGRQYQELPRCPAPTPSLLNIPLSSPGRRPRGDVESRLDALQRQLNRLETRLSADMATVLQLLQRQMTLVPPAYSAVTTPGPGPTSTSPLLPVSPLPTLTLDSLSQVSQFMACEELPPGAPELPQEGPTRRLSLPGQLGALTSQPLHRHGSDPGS
Experiment Description: Assay 5 - hERG assay (SyncroPatch 384PE patch clamp, CHO cells)
Test Conditions: geometric mean, CHO cells over-expressing hERG, read-out: Assay 5 (hERG Hu CHO IF EPh CR-Syncro) GMean IC50
Measured Attribute: IC50 (µM)

>>> print(df.to_string())
                                    compound  measurement_qualifier  numeric_readout
 0  O=c1ccccn1-c1ccc(N[C@H]2CC[C@H](Nc3nc4cc(CO)ccc4s3)C2)nc1 [Example 84]                      >             40.1
 1  N#Cc1ccc2sc(N[C@H]3CC[C@H](Nc4ccc(-n5ccccc5=O)cn4)C3)nc2c1 [Example 9]                      =             3.56
 2  Cc1cccn(-c2ccc(N[C@H]3CC[C@H](Nc4nc5cccnc5s4)C3)nc2)c1=O [Example 22]                      =             25.7
 3  N#Cc1cccn(-c2ccc(N[C@H]3CC[C@H](Nc4nc5cccnc5s4)C3)nc2)c1=O [Example 23]                      =             24.6
 4  O=c1ccccn1-c1ccc(N[C@H]2CC[C@H](Nc3nc4cc(OC(F)(F)F)cnc4[nH]3)C2)nc1 [Example 51]                      =               30
 5  Cc1ccc2nc(N[C@H]3CC[C@H](Nc4ccc(-n5ccccc5=O)cn4)C3)oc2c1 [Example 2]                      =             13.2
 6  N#Cc1ccc(=O)n(-c2ccc(N[C@H]3CC[C@H](Nc4nc5cccnc5[nH]4)C3)nc2)c1 [Example 43]                      >               40
 7  O=c1ccc(OC(F)F)cn1-c1ccc(N[C@H]2CC[C@H](Nc3nc4cccnc4s3)C2)nc1 [Example 77]                      =             10.4
 8  N#Cc1ccc(=O)n(-c2ccc(N[C@H]3CC[C@H](Nc4nc5cccnc5o4)C3)nc2)c1 [Example 17]                      >             40.1
 9  O=c1ccccn1-c1ccc(N[C@H]2CC[C@H](Nc3nc4ccccc4o3)C2)nc1 [Example 1]                      >               40
10  O=c1cccnn1-c1cnc(N[C@H]2CC[C@H](Nc3nc4cccnc4[nH]3)C2)nc1 [Example 31]                      >             40.1
11  O=c1ccccn1-c1ccc(N[C@H]2CC[C@H](Nc3nc4ncccc4o3)C2)nc1 [Compound 89]                      >             40.1
12  O=c1ccccn1-c1ccc(N[C@H]2CC[C@H](Nc3nc4nccnc4[nH]3)C2)nc1 [Example 80]                      >               40
13  COc1ccc(=O)n(-c2ccc(N[C@H]3CC[C@H](Nc4nc5cccnc5[nH]4)C3)nc2)c1 [Example 72]                      >               40
14  Cn1c(=O)n(-c2ccc(N[C@H]3CC[C@H](Nc4nc5cccnc5[nH]4)C3)nc2)c2ncccc21 [Example 45]                      >               40
15  COc1cccc(F)c1-c1ccc(N[C@H]2CC[C@H](Nc3nc4cccnc4[nH]3)C2)nc1 [Example 67]                      =             3.98
